Assay: growth suppression of beta-catenin knockout HCT116, pilot screen, human colon tumor cells (AID 823);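 also: 0% = wells killed by 20 µM Hyamine and 100% = untreated DMSO cell wells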
Conditions: CellTiter-Glo, 60 h, at 10 µM
Inconclusive results are not listed. Calls of active or inactive are those of the source.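 The calls were made as follows: active = cell viability at or below a set limit in both duplicate runs, the limit being the all-compound median minus 4 SD (cut at about 23% in these data, passing the limit was not always enough); inconclusive = no clear call, values can overlap the other calls; inactive = the rest.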
Bench note: report the call from 1 = active, 0 = inactive

* O=C(CCC1CCCC1)N1CCN(C(=O)c2ccco2)CC1 | 0
* CC(=O)Nc1ccc(S(=O)(=O)N2CCN(c3nc(NC4CCCC4)c4ccccc4n3)CC2)cc1 | 1
* COc1ccc2c(C)cc(=O)oc2c1C | 0
* CC1(C)CC2CC(C)(CN2C(=O)C23CCC(C)(C(=O)O2)C3(C)C)C1 (stereo not drawn) | 0

QUERY: Check the results log: what was the call for "Cc1cc(C)c(S(=O)(=O)NCCCN2CCOCC2)cc1Br" ?
RESULT: 0

QUERY: Check the results log: what was the call for "COc1cc(C(=O)Oc2c(CN3CCOCC3)cc(Cl)c3cccnc23)cc(OC)c1OC" ?
RESULT: 1

QUERY: Check the results log: what was the call for CCOC(=O)C1CCN(C(c2cccs2)c2sc3nc(C)nn3c2O)CC1 (stereo not drawn) ?
RESULT: 0

QUERY: Check the results log: what was the call for CC1Cc2nc(SCC(=O)NCCc3ccccc3)n(C)c(=O)c2S1 (stereo not drawn) ?
RESULT: 0
